- experimental-target: MurF (UniProt P11880)
- Sequence (P11880 whole entry): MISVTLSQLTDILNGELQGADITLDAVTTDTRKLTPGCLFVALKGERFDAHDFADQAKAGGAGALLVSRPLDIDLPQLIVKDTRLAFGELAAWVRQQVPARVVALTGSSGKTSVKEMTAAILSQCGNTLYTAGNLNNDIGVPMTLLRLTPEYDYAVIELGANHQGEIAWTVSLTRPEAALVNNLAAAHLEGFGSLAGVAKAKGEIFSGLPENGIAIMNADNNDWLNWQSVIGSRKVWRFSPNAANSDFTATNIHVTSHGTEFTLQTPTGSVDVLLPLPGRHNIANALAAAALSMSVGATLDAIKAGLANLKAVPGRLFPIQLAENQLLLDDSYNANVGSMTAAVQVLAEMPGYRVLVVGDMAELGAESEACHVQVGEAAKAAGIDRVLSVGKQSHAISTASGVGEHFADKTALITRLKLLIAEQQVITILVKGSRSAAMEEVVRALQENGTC
- assay-overview: relative enzymatic activity vs untreated control (fraction); higher = less inhibition
- test-parameters: 100 µM; incubation time: 2 h at 37 C
quantity-name: relative enzymatic activity
Please reply with the value in numeric form only.

Here's what some known entries look like.
| molecule | relative enzymatic activity |
| --- | --- |
| CC(C)(C)CC(C)(C)c1ccc(OCCOCC[N+](C)(C)Cc2ccccc2)cc1.[Cl-] | 0.193 |
| CC1(C)SC2C(N3C(=O)C(c4ccccc4)NC3(C)C)C(=O)N2C1C(=O)[O-].[K+] (centres undefined) | 0.945 |

IN: May I ask what relative enzymatic activity has been recorded for Cc1nnc(SCC2=C(C(=O)O)N3C(=O)[C@@H](NC(=O)Cn4cnnn4)[C@H]3SC2)s1 ?
OUT: 0.96

IN: Look up relative enzymatic activity: NCC1OC(OC2C(N)CC(N)C(OC3OC(CO)C(O)C(N)C3O)C2O)C(N)CC1O (centres undefined)
OUT: 0.932

====

relative enzymatic activity values for the molecules below.
- Tested on: DNA gyrase
- assay-overview: relative enzymatic activity vs untreated control (fraction); higher = less inhibition
- test-parameters: 100 µM; incubation time: 2 h at 37 C
Note: the reply should be a number with no unit written.

Take a look at these entries with their results.
| molecule | experimental-target | relative enzymatic activity |
| --- | --- | --- |
| O=C([O-])CCC(=O)OCC(NC(=O)C(Cl)Cl)C(O)c1ccc([N+](=O)[O-])cc1.[Na+] (stereo not drawn) | DNA gyrase | 1.05 |
| CC[C@H]1OC(=O)C[C@@H](O)[C@H](C)[C@@H](O[C@@H]2O[C@H](C)C[C@H](N(C)C)[C@H]2O)[C@@H](CC=O)C[C@@H](C)C(=O)/C=C/[C@]2(C)O[C@H]2[C@@H]1C | DNA gyrase | 0.781 |
| CCn1cc(C(=O)O)c(=O)c2cc(F)c(N3CCNC(C)C3)c(F)c21.Cl (stereo not drawn) | DNA gyrase | 0.0253 |
| NC(=O)N/N=C/c1ccc([N+](=O)[O-])o1 | DNA gyrase | 0.691 |
| CCOC(=O)OC(C)OC(=O)C1N2C(=O)C(NC(=O)C(N)c3ccccc3)C2SC1(C)C.Cl (stereo not drawn) | DNA gyrase | 0.992 |

IN: What measured relative enzymatic activity goes with CON=C1CN(c2nc3c(cc2F)c(=O)c(C(=O)O)cn3C2CC2)CC1CN.CS(=O)(=O)O (stereo not drawn) ?
OUT: 0.058

IN: Entry under review: CN(C)C1C(O)=C(C(N)=O)C(=O)C2(O)C(O)=C3C(=O)c4c(O)cccc4C(C)(O)C3C(O)C12.Cl (stereo not drawn) . Reported relative enzymatic activity?
OUT: 0.0137

IN: Any idea what relative enzymatic activity was measured for CC(=O)OCC1=C(C(=O)[O-])N2C(=O)C(NC(=O)Cc3cccs3)C2SC1.[Na+] (stereo not drawn) ?
OUT: 0.626

====

Quick reference for relative enzymatic activity among some compounds
- experimental-target: MurD (UniProt P14900)
- Sequence (P14900 whole entry): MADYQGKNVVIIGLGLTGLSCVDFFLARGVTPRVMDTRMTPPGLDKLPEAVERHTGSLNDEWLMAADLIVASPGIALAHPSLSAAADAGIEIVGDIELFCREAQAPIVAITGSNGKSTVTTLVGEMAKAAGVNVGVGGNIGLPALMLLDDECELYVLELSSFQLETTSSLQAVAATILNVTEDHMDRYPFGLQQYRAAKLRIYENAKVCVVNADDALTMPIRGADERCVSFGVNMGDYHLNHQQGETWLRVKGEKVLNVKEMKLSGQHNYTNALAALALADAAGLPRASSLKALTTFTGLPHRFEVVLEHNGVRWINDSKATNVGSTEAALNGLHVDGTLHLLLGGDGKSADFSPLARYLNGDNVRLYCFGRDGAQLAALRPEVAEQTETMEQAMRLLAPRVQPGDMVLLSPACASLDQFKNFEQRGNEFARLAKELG
- assay-overview: relative enzymatic activity vs untreated control (fraction); higher = less inhibition
- test-parameters: 100 µM; incubation time: 2 h at 37 C
Keep it simple and answer with nothing but the number.

| compound | relative enzymatic activity |
| --- | --- |
| CO/N=C(\C(=O)N[C@@H]1C(=O)N2C(C(=O)O)=C(C[N+]3(C)CCCC3)CS[C@H]12)c1csc(N)n1 | 0.591 |

IN: Dear colleague, I am looking for the recorded relative enzymatic activity of the following compound: CC1CN(c2c(F)c(N)c3c(=O)c(C(=O)O)cn(C4CC4)c3c2F)CC(C)N1 (configuration not stated)
OUT: 0.597

IN: Need relative enzymatic activity of C[C@H]1COc2c(C3(N)CC3)c(F)cc3c(=O)c(C(=O)O)cn1c23 , thanks.
OUT: 0.578

IN: Please give the measured relative enzymatic activity for this compound: CNC1C(O)C(NC)C2OC3(O)C(=O)CC(C)OC3OC2C1O.Cl.Cl (configuration not stated)
OUT: 0.533

IN: For CC(O)C1C(=O)N2C(C(=O)O)=C(SC3CNC(C(=O)N(C)C)C3)C(C)C12 (configuration not stated) , what is its reported relative enzymatic activity?
OUT: 0.487

IN: # query: relative enzymatic activity of entry Cc1nnc(SCC2=C(C(=O)[O-])N3C(=O)C(NC(=O)Cn4cnnn4)C3SC2)s1.[Na+] (configuration not stated)
OUT: 0.612

IN: For the compound shown here, CC(C)(ON=C(C(=O)NC1C(=O)N2C(C(=O)[O-])=C(C[n+]3ccccc3)CSC12)c1csc(N)n1)C(=O)O (configuration not stated) , give the reported relative enzymatic activity.
OUT: 0.548

====

- experimental-target: DNA primase (UniProt P0ABS7)
- Sequence (P0ABS7 whole entry): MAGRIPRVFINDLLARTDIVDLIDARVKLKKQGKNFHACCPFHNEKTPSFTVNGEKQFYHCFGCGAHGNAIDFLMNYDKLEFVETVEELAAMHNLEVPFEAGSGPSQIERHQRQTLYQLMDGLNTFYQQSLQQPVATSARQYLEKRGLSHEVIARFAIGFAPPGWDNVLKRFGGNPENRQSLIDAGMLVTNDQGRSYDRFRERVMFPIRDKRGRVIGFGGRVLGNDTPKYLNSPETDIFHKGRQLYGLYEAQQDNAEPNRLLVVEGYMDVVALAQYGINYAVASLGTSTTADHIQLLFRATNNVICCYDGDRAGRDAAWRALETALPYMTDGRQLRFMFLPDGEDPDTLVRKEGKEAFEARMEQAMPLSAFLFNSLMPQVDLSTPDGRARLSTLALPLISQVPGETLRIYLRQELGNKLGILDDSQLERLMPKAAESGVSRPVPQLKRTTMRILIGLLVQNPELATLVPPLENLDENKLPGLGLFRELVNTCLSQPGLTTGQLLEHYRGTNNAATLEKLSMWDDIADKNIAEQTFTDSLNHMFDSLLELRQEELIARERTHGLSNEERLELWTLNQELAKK
- assay-overview: relative enzymatic activity vs untreated control (fraction); higher = less inhibition
- test-parameters: 100 µM; incubation time: 2 h at 37 C
Values of relative enzymatic activity greater than or equal to 0.8 map to fulfilled; values below map to not fulfilled.

| compound | experimental-target | category |
| --- | --- | --- |
| CCn1cc(C(=O)O)c(=O)c2cc(F)c(N3CCNCC3)nc21 | DNA primase (UniProt P0ABS7) | not fulfilled |
| COC1C=COC2(C)Oc3c(C)c(O)c4c(O)c(c(C=NN5CCN(C)CC5)c(O)c4c3C2=O)NC(=O)C(C)=CC=CC(C)C(O)C(C)C(O)C(C)C(OC(C)=O)C1C (configuration not stated) | DNA primase (UniProt P0ABS7) | not fulfilled |
| NC(C(=O)NC1C(=O)N2C(C(=O)O)=C(Cl)CSC12)c1ccccc1 (configuration not stated) | DNA primase (UniProt P0ABS7) | not fulfilled |
| CCOC(=O)CCC(=O)O[C@H]1[C@H](O[C@@H]2[C@@H](C)[C@H](O[C@H]3C[C@@](C)(OC)[C@@H](O)[C@H](C)O3)[C@@H](C)C(=O)O[C@H](CC)[C@@](C)(O)[C@H](O)[C@@H](C)C(=O)[C@H](C)C[C@@]2(C)O)O[C@H](C)C[C@@H]1N(C)C | DNA primase (UniProt P0ABS7) | fulfilled |
| CCC(C)C1NC(=O)C(CCNCS(=O)(=O)[O-])NC(=O)C(NC(=O)C(CCNCS(=O)(=O)[O-])NC(=O)C(NC(=O)C(CCNCS(=O)(=O)[O-])NC(=O)CCCCC(C)C)C(C)O)CCNC(=O)C(C(C)O)NC(=O)C(CCNCS(=O)(=O)[O-])NC(=O)C(CCNCS(=O)(=O)[O-])NC(=O)C(C(C)CC)NC1=O.[Na+].[Na+].[Na+].[Na+].[Na+] (configuration not stated) | DNA primase (UniProt P0ABS7) | not fulfilled |

Here's the next entry for you.
IN: Identify whether the reported relative enzymatic activity of the following compound is 0.8 or greater: CC1c2cccc(O)c2C(=O)C2=C(O)C3(O)C(=O)C(C(N)=O)=C(O)C(N(C)C)C3C(O)C21.Cl (configuration not stated)
OUT: not fulfilled

====

- experimental-target: MurC (UniProt C4ZRI6)
- Sequence (C4ZRI6 whole entry, looked up): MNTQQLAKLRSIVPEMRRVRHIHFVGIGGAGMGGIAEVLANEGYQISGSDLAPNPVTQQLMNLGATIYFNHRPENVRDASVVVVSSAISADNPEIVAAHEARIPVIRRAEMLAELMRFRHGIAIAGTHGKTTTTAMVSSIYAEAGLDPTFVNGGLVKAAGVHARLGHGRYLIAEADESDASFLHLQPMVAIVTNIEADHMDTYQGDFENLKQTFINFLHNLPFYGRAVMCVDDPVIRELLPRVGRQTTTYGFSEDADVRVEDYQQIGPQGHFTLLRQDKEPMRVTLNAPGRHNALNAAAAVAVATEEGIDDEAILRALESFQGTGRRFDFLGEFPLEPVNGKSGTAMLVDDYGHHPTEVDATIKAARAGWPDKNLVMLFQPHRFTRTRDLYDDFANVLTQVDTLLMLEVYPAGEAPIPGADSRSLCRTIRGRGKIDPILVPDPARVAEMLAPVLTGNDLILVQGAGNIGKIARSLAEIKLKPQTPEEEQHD
- assay-overview: relative enzymatic activity vs untreated control (fraction); higher = less inhibition
- test-parameters: 100 µM; incubation time: 2 h at 37 C
Reported relative enzymatic activity by item:
Format: numeric value only, no unit, no commentary.

Worked set:
| molecule | quantity-name | readout-value |
| --- | --- | --- |
| CO/N=C(\C(=O)N[C@@H]1C(=O)N2C(C(=O)O)=C(C[n+]3ccn4ncccc43)CS[C@H]12)c1nsc(N)n1 | relative enzymatic activity | 0.964 |
| Cc1oc(=O)oc1CN1CCN(c2cc3c(cc2F)c(=O)c(C(=O)O)c2n3C(C)S2)CC1 (configuration not stated) | relative enzymatic activity | 0.821 |
| Cc1cc(C2CCCCC2)n(O)c(=O)c1.NCCO | relative enzymatic activity | 1.18 |
| CC[C@@H](C)CCCCC(=O)N[C@@H](CCN)C(=O)N[C@H](C(=O)N[C@@H](CCN)C(=O)N[C@H]1CCNC(=O)[C@H]([C@@H](C)O)NC(=O)[C@H](CCN)NC(=O)[C@H](CCN)NC(=O)[C@H](CC(C)C)NC(=O)[C@@H](Cc2ccccc2)NC(=O)[C@@H](CCN)NC1=O)[C@@H](C)O | relative enzymatic activity | 1.03 |
| O=C(Cn1cnnn1)NC1C(=O)N2C(C(=O)O)=C(CSc3nncs3)CSC12 (configuration not stated) | relative enzymatic activity | 1.06 |
| CC1(C)S[C@@H]2[C@H](NC(=O)[C@H](N)c3ccccc3)C(=O)N2[C@H]1C(=O)OCOC(=O)[C@@H]1N2C(=O)C[C@H]2S(=O)(=O)C1(C)C | relative enzymatic activity | 1.08 |

Now consider the entry below.
IN: I'd like to know its relative enzymatic activity. The molecule in question is O=C([O-])C1=C(CSc2nnnn2CS(=O)(=O)[O-])CSC2C(NC(=O)C(O)c3ccccc3)C(=O)N12.[Na+].[Na+] (configuration not stated)
OUT: 1.25

// provenance: the supplement of paper PMC9446081
